- Test system: KRAS-G12D mutant cell line (A-427)
- runDescription: Growth inhibition activity on KRAS-G12D mutant cell line (A-427), CellTiter-Glo 3D
- Type: cell-based
- experimentalSetup: Homo sapiens, 72 h, A-427 cells, 3-day culture with compound, read-out: A427 CTX IC50
Catalogue of molecules with associated pIC50
Note on pIC50: it is the negative log10 of concentration, concentration in mol/L.

Cc1cccc2cc(O)cc(N3CCc4c(nc(OCC5(CN6CC[C@@H](F)C6)CC5)nc4N4CC5CCC(C4)N5)C3)c12 | 5.93
CN(C)CC1(COc2nc3c(c(N4C[C@@H]5CC[C@H]4CN5)n2)CCN(c2cc(O)cc4cccc(Br)c24)C3)CC1 | 5.71

Incoming: Give pIC50 for CN(C)[C@@H]1CC[C@@H]1COc1nc(N2CC3CCC(C2)N3)c2ccc(-c3cc(O)cc4ccccc34)c(F)c2n1 (relative stereo)
Outgoing: 5.89

Source of measurements: patent US20230348495A1
